experiment: ATG_MRE_CIS: Attagene CIS-FACTORIAL HepG2 Assay for human Metal Responsive Element (MRE) (AID 2282954); settings: HepG2 MRE cis-reporter transcription, Attagene multiplex; actives raise or lower the signal
Active and inactive are the calls of the source. How the source made its calls: active means hit-call score of the fitted dose curve at least 0.9, where 1 is the maximum; inactive means score below 0.9.
Allowed answers: active, inactive

Example cases with answers are listed next.
Qu. Hi, do you know how C[C@]12CC[C@@H]3c4ccc(O)cc4CC[C@H]3[C@@H]1CC[C@@H]2OC(=O)CCC1CCCC1 came out in this test?
Ans. inactive

Qu. Next compound up: O=C(Nc1cccc([N+](=O)[O-])c1)c1cc2ccccc2cc1O
Ans. inactive

Qu. Would you mind doing OCC(CO)(CBr)CBr as well?
Ans. inactive

Qu. Also check FC(F)(F)C(F)(F)C(F)(F)Br
Ans. inactive

Others:
Qu. Could you please tell me the result logged for OCC(F)(F)C(F)(F)C(F)(F)C(F)(F)C(F)(F)C(F)(F)C(F)(F)C(F)(F)C(F)(F)C(F)(F)C(F)(F)F in this assay?
Ans. inactive

Qu. Entry C[N+](C)(CCCNS(=O)(=O)CCC(F)(F)C(F)(F)C(F)(F)C(F)(F)C(F)(F)C(F)(F)F)CC(=O)[O-] please
Ans. inactive

Qu. Then C=CC(=O)OCCN(CC)CC ?
Ans. active

Qu. Same lookup for CNNCc1ccc(C(=O)NC(C)C)cc1 , please.
Ans. inactive

Qu. Entry CC(C)(C)c1ccc(CCC=O)cc1 please
Ans. inactive

Qu. Further, for FC(F)(F)C(F)(F)C(F)(F)C(F)(F)I ?
Ans. inactive

Qu. Can you check CCCCc1ccc2ccccc2c1S(=O)(=O)O next?
Ans. inactive

Qu. What do we get for COC(O)c1ccccc1 (stereo not drawn) ?
Ans. inactive

Qu. // query: O=C1NS(=O)(=O)c2ccccc21
Ans. inactive

Qu. Repeat with CCCCCCCCCCCC[N+](C)(C)CCCCCCCCCCCC
Ans. active
